target: PD-L1 (human PD-L1 protein of the ELISA of Example 16) (human, UniProt Q9NZQ7 19-238, limits assumed); assay: ELISA; affinity relative to original antibody h_Nb1 VHH (SEQ ID NO.21)
Sequence (Q9NZQ7 19-238 limits assumed): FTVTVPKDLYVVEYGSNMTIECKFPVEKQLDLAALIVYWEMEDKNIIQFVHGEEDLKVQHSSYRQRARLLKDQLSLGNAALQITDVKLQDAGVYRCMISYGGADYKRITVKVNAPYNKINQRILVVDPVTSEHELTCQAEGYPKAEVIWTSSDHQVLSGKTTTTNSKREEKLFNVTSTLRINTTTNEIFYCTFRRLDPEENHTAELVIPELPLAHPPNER
Endpoint name: Increased relative affinity

>>> readout_value("h_Nb1_D62Y (VHH, also called 99) VHH: DVQLQESGGGLVQPGGSLRLSCAASGFTFSSYAMSWVRQAPGKGLEWVSDINSGGDNTDYAYSVKGRFTISRDNAKNTLYLQMNSLKPEDTAVYYCARGPKLCFSSWGQGTQVTVSS")
"5.8 relative"
>>> readout_value("h_Nb1_A61N (VHH, also called 92) VHH: DVQLQESGGGLVQPGGSLRLSCAASGFTFSSYAMSWVRQAPGKGLEWVSDINSGGDNTDYNDSVKGRFTISRDNAKNTLYLQMNSLKPEDTAVYYCARGPKLCFSSWGQGTQVTVSS")
"5.13 relative"
>>> readout_value("h_Nb1_A61Q (VHH, also called 93) VHH: DVQLQESGGGLVQPGGSLRLSCAASGFTFSSYAMSWVRQAPGKGLEWVSDINSGGDNTDYQDSVKGRFTISRDNAKNTLYLQMNSLKPEDTAVYYCARGPKLCFSSWGQGTQVTVSS")
"4.66 relative"
>>> readout_value("h_Nb1_G99R (VHH, also called 103) VHH: DVQLQESGGGLVQPGGSLRLSCAASGFTFSSYAMSWVRQAPGKGLEWVSDINSGGDNTDYADSVKGRFTISRDNAKNTLYLQMNSLKPEDTAVYYCARRPKLCFSSWGQGTQVTVSS")
"12.1 relative"
>>> readout_value("h_Nb1_D59R (VHH, also called 95) VHH: DVQLQESGGGLVQPGGSLRLSCAASGFTFSSYAMSWVRQAPGKGLEWVSDINSGGDNTRYADSVKGRFTISRDNAKNTLYLQMNSLKPEDTAVYYCARGPKLCFSSWGQGTQVTVSS")
"4.28 relative"
>>> readout_value("h_Nb1_D59M (VHH, also called 96) VHH: DVQLQESGGGLVQPGGSLRLSCAASGFTFSSYAMSWVRQAPGKGLEWVSDINSGGDNTMYADSVKGRFTISRDNAKNTLYLQMNSLKPEDTAVYYCARGPKLCFSSWGQGTQVTVSS")
"4.9 relative"
>>> readout_value("h_Nb1_G99Q (VHH, also called 104) VHH: DVQLQESGGGLVQPGGSLRLSCAASGFTFSSYAMSWVRQAPGKGLEWVSDINSGGDNTDYADSVKGRFTISRDNAKNTLYLQMNSLKPEDTAVYYCARQPKLCFSSWGQGTQVTVSS")
"6.16 relative"
>>> readout_value("h_Nb1_D59F (VHH, also called 97) VHH: DVQLQESGGGLVQPGGSLRLSCAASGFTFSSYAMSWVRQAPGKGLEWVSDINSGGDNTFYADSVKGRFTISRDNAKNTLYLQMNSLKPEDTAVYYCARGPKLCFSSWGQGTQVTVSS")
"5.12 relative"
